Property label: melting point (°C)

Known results for compounds:
N#Cc1ccc2[nH]c(-c3nc4n(n3)CCCC4c3cccc(OC(F)(F)F)c3)cc2c1 (centres unmarked)
225.1
N#Cc1ccc2[nH]c(-c3nc4n(n3)CCCC4c3ccc(F)cc3C(F)(F)F)cc2c1 (centres unmarked)
265
COc1c(C#N)ccc2[nH]c(-c3nc4n(n3)CCOC4c3ccc(F)cc3C)cc12 (centres unmarked) [Compound 114]
257.5
N#Cc1ccc2[nH]c(-c3nc4n(n3)CCCC4c3cc(C(F)(F)F)ccc3F)cc2c1 (centres unmarked)
184.3
Cc1cc(F)ccc1C1CCCn2nc(-c3cc4cc(C#N)ccc4[nH]3)nc21 (centres unmarked)
244.9

P: CCc1cc(F)ccc1C1OCCn2nc(-c3cc4cc(-n5cnc(C)c5)ccc4[nH]3)nc21 (centres unmarked)
Q: Cc1ccccc1C1CCCn2nc(-c3cc4cc(C#N)ccc4[nH]3)nc21 (centres unmarked)
Prompt line: Returns the identifier with the smallest measured melting point among P and Q . Provide the label of your selected option as the answer.
Response line: Q
(Q: 142.1 °C, P: 285.7 °C)

----------
Property label: melting point (°C)

Cc1cn(-c2ccc3[nH]c(-c4nc5n(n4)CCOC5c4cccc(F)c4C)cc3c2)cn1 (stereo not shown)
261.3

1: Cc1cc(F)ccc1C1OCCn2nc(-c3cc4nc(-c5cnn(C)c5)ccc4[nH]3)nc21 (stereo not shown)
2: N#Cc1ccc2cc(-c3nc4n(n3)CCCC4c3ccccc3C(F)(F)F)[nH]c2c1 (stereo not shown)
Prompt line: Returns the identifier with the smallest measured melting point among 1 and 2 . Provide the label of your selected option as the answer.
Response line: 2
(2: 175.7 °C, 1: 263.8 °C)

I: COc1c(C#N)ccc2[nH]c(-c3nc4n(n3)CCCC4(O)c3ccc(F)cc3C)cc12 (stereo not shown)
II: COc1ccccc1C1CCCn2nc(-c3cc4cc(C#N)ccc4[nH]3)nc21 (stereo not shown)
Prompt line: Lab note: record which item had the higher melting point, I or II . Provide the label of your selected option as the answer.
Response line: I

----------
Property label: melting point (°C)

Cc1cn(-c2ccc3[nH]c(-c4nc5n(n4)CCOC5c4ccc(F)cc4C)cc3c2)cn1 (single isomer, unassigned) [Compound 110]
278
COc1c(C#N)ccc2[nH]c(-c3cn4c(n3)C(c3ccc(F)cc3C)OCC4)cc12 (stereo not shown) [Compound 48]
244.4
COc1c(C#N)ccc2[nH]c(-c3cn4c(n3)C(c3ccccc3Cl)OCC4)cc12 (stereo not shown) [Compound 50]
254.3
Cc1cc(-c2ccc3[nH]c(-c4nc5n(n4)CCCC5c4ccccc4C)cc3n2)ccn1 (stereo not shown) [Compound 6]
266.5
COc1c(C#N)ccc2[nH]c(-c3nc4n(n3)CCOC4c3c(C)cccc3F)cc12 (stereo not shown) [Compound 142]
244.8
Cc1cn(-c2ccc3[nH]c(-c4nc5n(n4)CCOC5c4ccc(F)cc4C)cc3c2)cn1 (single isomer, unassigned) [Compound 109]
278.9
COc1c(C#N)ccc2[nH]c(-c3nc4n(n3)CCOC4c3ccc(F)c(Cl)c3)cc12 (stereo not shown) [Compound 156]
267.3

----------
Property label: melting point (°C)

A: COc1c(C#N)ccc2[nH]c(-c3cn4c(n3)C(c3cc(F)ccc3C)OCC4)cc12 (centres unmarked) [Compound 158]
B: Cc1cc(-c2ccc3[nH]c(-c4cn5c(n4)C(c4ccc(F)cc4C)OCC5)cc3c2)ccn1 (centres unmarked) [Compound 103]
Prompt line: Lab note: record which item had the higher melting point, A or B . Provide the label of your selected option as the answer.
Response line: A
(A: 280.1 °C, B: 191.8 °C)

I: COc1c(C#N)ccc2[nH]c(-c3cn4c(n3)C(c3c(C)cccc3F)OCC4)cc12 (centres unmarked) [Compound 139]
II: COc1c(C#N)ccc2[nH]c(-c3nc4n(n3)CCOC4c3ccccc3Cl)cc12 (centres unmarked) [Compound 137]
Prompt line: Returns the identifier with the smallest measured melting point among I and II . Provide the label of your selected option as the answer.
Response line: II
(II: 197.5 °C, I: 296.2 °C)

----------
Property label: melting point (°C)

Known results for compounds:
Cc1cc(F)ccc1C1CCCn2cc(-c3cc4cc(C#N)ncc4[nH]3)nc21 (stereo not shown) [Compound 72]
255.5
Cc1cn(-c2ccc3[nH]c(-c4nc5n(n4)CCCC5c4ccccc4C)cc3n2)cn1.Cl (stereo not shown) [Compound 5]
189.4

1: COc1c(C#N)ccc2[nH]c(-c3cn4c(n3)C(c3ccccc3C3CC3)OCC4)cc12 (stereo not shown) [Compound 169]
2: COc1ccc2[nH]c(-c3nc4n(n3)CCCC4c3ccccc3C(F)(F)F)cc2c1 (stereo not shown) [Compound 29]
Prompt line: Returns the identifier with the smallest measured melting point among 1 and 2 . Provide the label of your selected option as the answer.
Response line: 2
(2: 183 °C, 1: 270.8 °C)

----------
Property label: melting point (°C)

Cc1cc(F)ccc1C1CCCn2nc(-c3cc4nc(-c5cnn(C)c5)ccc4[nH]3)nc21 (centres unmarked)
281.7
Cc1cn(-c2ccc3[nH]c(-c4nc5n(n4)CCOC5c4ccc(F)cc4C(C)C)cc3c2)cn1 (centres unmarked)
297.5
COc1c(C#N)ccc2[nH]c(-c3cn4c(n3)C(c3c(C)cccc3F)OCC4)cc12 (centres unmarked) [Compound 138]
297
COc1c(C#N)ccc2[nH]c(-c3nc4n(n3)CCOC4c3cccc(F)c3C)cc12 (centres unmarked) [Compound 150]
238.2
Cc1ccccc1C1CCCn2nc(-c3cc4cc(-c5cnn(C)c5)ccc4[nH]3)nc21 (centres unmarked)
223.8
COc1c(C#N)ccc2[nH]c(-c3cn4c(n3)C(c3ccc(F)cc3C)OCC4)cc12 (centres unmarked) [Compound 46]
236.2
COc1c(C#N)ccc2[nH]c(-c3nc4n(n3)CCOC4c3cccc(F)c3C)cc12 (centres unmarked) [Compound 147]
240.4
COc1c(C#N)ccc2[nH]c(-c3cn4c(n3)C(c3ccccc3C3CC3)OCC4)cc12 (centres unmarked) [Compound 170]
269.8
Cc1cc(F)ccc1C1OCCn2nc(-c3cc4cc(C#N)ccc4[nH]3)nc21 (single isomer, unassigned) [Compound 98]
253.5
Cc1cc(F)ccc1C1OCCn2nc(-c3cc4cc(C#N)ccc4[nH]3)nc21 (single isomer, unassigned) [Compound 97]
255
N#Cc1ccc2[nH]c(-c3nc4n(n3)CCCC4c3ccccc3C(F)(F)F)cc2c1 (centres unmarked)
229

----------
Property label: melting point (°C)

COc1c(C#N)ccc2[nH]c(-c3cn4c(n3)C(c3ccccc3Cl)OCC4)cc12 (stereo not shown) [Compound 51]
255.6
COc1ccccc1C1CCCn2cc(-c3cc4cc(C#N)ccc4[nH]3)nc21 (stereo not shown) [Compound 67]
251
COc1c(C#N)ccc2[nH]c(-c3cn4c(n3)C(c3cc(F)ccc3C)OCC4)cc12 (stereo not shown) [Compound 159]
277.1
Cc1cn(-c2ccc3[nH]c(-c4nc5n(n4)CCOC5c4cc(F)c(F)c(C)c4C)cc3c2)cn1 (stereo not shown) [Compound 116]
285.1

----------
Property label: melting point (°C)

Cc1cc(-c2ccc3[nH]c(-c4nc5n(n4)CCCC5c4ccc(F)cc4C)cc3n2)ccn1 (stereo not drawn)
267.2
N#Cc1ccc2[nH]c(-c3nc4n(n3)CCCC4c3ccccc3C(F)(F)F)nc2c1 (stereo not drawn)
252.2
Cc1ccccc1C1CCCn2nc(-c3cc4nc(C#N)ccc4[nH]3)nc21 (stereo not drawn)
264.9
COc1c(C#N)ccc2[nH]c(-c3nc4n(n3)CCOC4c3ccc(F)cc3C)cc12 (stereo not drawn) [Compound 115]
257.4
COc1c(C#N)ccc2[nH]c(-c3cn4c(n3)C(c3ccc(F)cc3C)OCC4)cc12 (stereo not drawn) [Compound 47]
242.6
COc1c(C#N)ccc2[nH]c(-c3nc4n(n3)CCOC4c3c(C)cccc3F)cc12 (stereo not drawn) [Compound 141]
244.4
N#Cc1ccc2[nH]c(-c3nc4n(n3)CCCC4c3ccccc3C(F)(F)F)cc2n1 (stereo not drawn)
272.3
COc1c(C#N)ccc2[nH]c(-c3nc4n(n3)CCOC4c3ccc(F)c(Cl)c3)cc12 (stereo not drawn) [Compound 157]
265.5
N#Cc1ccc2[nH]c(-c3nc4n(n3)CCCC4c3ccccc3Cl)cc2c1 (stereo not drawn)
208.6
